Please provide measured MIC for the entries that follow.
System: pathogenic bacteria
methodNotes: MIC by microdilution broth method (NCCLS M7-A4), in vitro antibacterial activity
Assay type: cell-based
conditionParameters: Streptococcus pneumoniae, Organism C: fluoroquinolone-resistant clinical isolate of Streptococcus pneumoniae (QRDR amino acid substitutions)
Structures can show the parent of a compound that is named as a salt.

So what MIC did "NC/C(Cl)=C1\CCCN(c2cc3c(cc2F)c(=O)c(C(=O)O)cn3C2CC2)C1" get with pathogenic bacteria? > 16 µg/mL

Same for "COc1c(N2CCC/C(=C(/F)CN)CC2)c(F)cc2c(=O)c(C(=O)O)cn(C3CC3)c12" 4 µg/mL

Same for "CN(C)CCNCC(Cl)=C1CCN(c2nc3c(cc2F)c(=O)c(C(=O)O)cn3C2CC2)CC1" > 16 µg/mL

Same for "C=C(C)CC(CN)=C1CCN(c2c(F)cc3c(=O)c(C(=O)O)cn(C4CC4)c3c2OC)CC1" 16 µg/mL

Same for "NCC(F)=C1CCN(c2nc3c(cc2F)c(=O)c(C(=O)O)cn3-c2ccc(F)cc2F)CC1" 1 µg/mL

Same for "COc1c(N2CCC(=C(Cl)CNC(=O)CN)CC2)c(F)cc2c(=O)c(C(=O)O)cn(C3CC3)c12.O=C(O)C(F)(F)F" > 16 µg/mL

Same for NC/C(F)=C1/CCCN(c2c(F)cc3c(=O)c(C(=O)O)cn(-c4nc(N)c(F)cc4F)c3c2Cl)C1 [Compound 358, Trifluoroacetate] 8 µg/mL
